Below, each entry is listed with its recorded pIC50.
- measured_on: tankyrase 1 (TNKS 1) (Homo sapiens, UniProt O95271)
- Construct: 1,024-1,327aa; made in house; host or cells: cell-free protein synthesis system
- Sequence (O95271 1024-1327): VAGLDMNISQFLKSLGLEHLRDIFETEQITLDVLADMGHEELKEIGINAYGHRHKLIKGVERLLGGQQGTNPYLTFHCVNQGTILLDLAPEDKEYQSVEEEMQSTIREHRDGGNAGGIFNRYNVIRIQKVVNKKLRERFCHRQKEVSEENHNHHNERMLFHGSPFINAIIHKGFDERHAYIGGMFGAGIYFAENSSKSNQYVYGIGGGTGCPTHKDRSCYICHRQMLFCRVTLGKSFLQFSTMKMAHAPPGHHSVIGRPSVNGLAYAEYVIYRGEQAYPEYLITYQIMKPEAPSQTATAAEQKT
- protocol_description: Tankyrase inhibitory activity test (ELISA, self-polyADP ribosylation), tankyrase 1
- Format: biochemical
- test_settings: tankyrase 1, ELISA, self-polyADP ribosylation; read-out: TNKS1 inhibitory activity (IC50 class)
pIC50: −log10 of the molar value.

Worked cases, pIC50 given:
CN1C(=O)C2(CCN(c3nc4c(c(=O)[nH]3)CCCC4)CC2)c2c(Cl)cc(OCCCN3CCOCC3)cc21	> 7.70
O=C1N(Cc2cccnc2)c2cccc(Cl)c2C12CCN(c1nc3c(c(=O)[nH]1)CCCC3)CC2	> 7.70
CCOC(=O)c1cc(Cl)c2c(c1)N(Cc1cccnc1)CC21CCN(c2nc3c(c(=O)[nH]2)CCCC3)CC1	6.70 to 7.70
CN1CCN(CCOc2cc(F)c3c(c2)N(C)C(=O)C32CCN(c3nc4c(c(=O)[nH]3)CCCN4C)CC2)CC1	> 7.70
Cn1ccc2c(=O)[nH]c(N3CCC4(CC3)CN(Cc3cccnc3)c3cc(F)cc(F)c34)nc21	6.70 to 7.70

Request: Give the reported value of pIC50 for this record: [2H]C([2H])([2H])N1CCCc2c1nc(N1CCC3(CC1)C(=O)N(CCO)c1cc(F)cc(F)c13)[nH]c2=O
Response: > 7.70

Request: Answer with the recorded pIC50 for the compound listed here: CN1CCCc2c1nc(N1CCC3(CC1)C(=O)N(C)c1cc(-c4nc(C(=O)N5CCOCC5)co4)cc(Cl)c13)[nH]c2=O
Response: 6.70 to 7.70

Request: Please list pIC50 recorded for the compound CN1CCCc2c1nc(N1CCC3(CC1)C(=O)N(C)c1cc(O)cc(F)c13)[nH]c2=O
Response: > 7.70

Request: Annotate the compound CN1CCCc2c1nc(N1CCC3(CC1)CN(CCO)c1cc(F)cc(F)c13)[nH]c2=O with its measured pIC50.
Response: 6.70 to 7.70
